Test: Pharmacokinetics in dogs (plasma concentration by HPLC)
Type: in vivo, dog (beagle)
Conditions: dog, plasma, po, 2 mg/kg/day, Dog 4, day 3, 1 h; 2 mg/kg/day PO
MEASURED PROPERTY: concentration at 1 h (ng/mL)

A = Cc1cc(Nc2nccc(-c3ccncc3)n2)ccc1N.Cl.Cl [Compound 2, reference compound]
B = c1cc(Nc2nccc(-c3cccs3)n2)cc(OCCn2ccnc2)c1
Min concentration at 1 h? A | B Return value: the label identifying the chosen record.
A

* * *

Test: Pharmacokinetics in dogs (plasma concentration by HPLC)
Type: in vivo, dog (beagle)
Settings: dog, plasma, po, 2 mg/kg/day, Mean, day 5; 2 mg/kg/day PO
MEASURED PROPERTY: half-life (h)
Write the number in h without appending the unit.

So for c1cc(Nc2nccc(-c3cccs3)n2)cc(OCCn2ccnc2)c1 , the logged half-life turned out to be 1.5

All values here come from patent US5162328A.
